Taken from patent US11352350B2.

System Name: IRAK4 (Homo sapiens (Human))
Sequence (Q9NWZ3 whole entry): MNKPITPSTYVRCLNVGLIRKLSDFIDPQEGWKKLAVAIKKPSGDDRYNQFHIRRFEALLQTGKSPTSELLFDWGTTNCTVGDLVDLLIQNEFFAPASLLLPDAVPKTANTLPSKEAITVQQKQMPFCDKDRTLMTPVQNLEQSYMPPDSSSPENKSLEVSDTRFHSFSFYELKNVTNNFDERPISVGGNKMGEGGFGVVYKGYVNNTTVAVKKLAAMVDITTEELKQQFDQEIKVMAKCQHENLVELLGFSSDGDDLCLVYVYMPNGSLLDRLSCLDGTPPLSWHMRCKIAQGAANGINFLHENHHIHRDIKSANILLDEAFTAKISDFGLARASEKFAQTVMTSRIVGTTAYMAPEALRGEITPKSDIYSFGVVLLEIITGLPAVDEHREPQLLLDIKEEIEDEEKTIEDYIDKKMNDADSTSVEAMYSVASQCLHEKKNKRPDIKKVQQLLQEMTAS
Assay Remarks: IRAK4 MSD degradation in OCI-LY10
Assay type: cell-based
Condition Summary: OCI-LY10, 4 hrs, MSD; read-out: IRAK4 MSD degradation in OCI-LY10 at 4 hrs: Average external-Abs DC50
// reported DC50 per item

CN(CCc1ccc(CCNc2cccc3c2C(=O)N(C2CCC(=O)NC2=O)C3=O)cc1)C[C@H]1CC[C@H](n2cc(NC(=O)c3cnn4ccc(N5C[C@H]6C[C@@H]5CO6)nc34)c(C(F)F)n2)CC1 (stereo partly drawn)	100 to 1000 nM
NC(=O)c1nn([C@H]2CC[C@@H](C(=O)NCCOCCOCCNc3cccc4c3C(=O)N(C3CCC(=O)NC3=O)C4=O)CC2)cc1NC(=O)c1coc(-c2ccnc(NCC(F)(F)F)c2)n1 (single isomer, unassigned)	10 to 100 nM

Exercise: I am curious: what DC50 value has been reported for O=C1CCC(N2C(=O)c3cccc(NCCOC4CCN(C[C@H]5CC[C@H](n6cc(NC(=O)c7cnn8ccc(N9C[C@H]%10C[C@@H]9CO%10)nc78)c(C(F)F)n6)CC5)CC4)c3C2=O)C(=O)N1 (stereo partly drawn) ?
Solution: 10 to 100 nM
